List of relative viability values.
System: NCI-H1915
Assay: relative viability (nuclei count vs DMSO), 5 days (fraction); higher = more cells survive
Settings: first compound 0.1 µM
Would you mind answering with just the numeric figure?

The following molecules have reported results that may help.
CCN(CC)CCCCNc1ncc2cc(-c3cc(OC)cc(OC)c3)c(NC(=O)NC(C)(C)C)nc2n1 + N=C(N)NC(=N)NCCc1ccccc1 [Phenformin] (partner 250 µM) ... 0.365
CCN(CC)CCCCNc1ncc2cc(-c3cc(OC)cc(OC)c3)c(NC(=O)NC(C)(C)C)nc2n1 + CC1(C)CCC(c2ccc(Cl)cc2)=C(CN2CCN(c3ccc(C(=O)NS(=O)(=O)c4ccc(N[C@H](CCN5CCOCC5)CSc5ccccc5)c(S(=O)(=O)C(F)(F)F)c4)cc3)CC2)C1 [Navitoclax] (partner 0.5 µM) ... 0.838
O=c1cc(N2CCOCC2)oc2c(-c3cccc4c3sc3ccccc34)cccc12 + C[C@]1(O)C[C@@H](c2nc(-c3ccc4ccc(-c5ccccc5)nc4c3)c3c(N)nccn32)C1 [Linsitinib] (partner 1 µM) ... 0.636
CCN(CC)CCCCNc1ncc2cc(-c3cc(OC)cc(OC)c3)c(NC(=O)NC(C)(C)C)nc2n1 + CS(=O)(=O)CCNCc1ccc(-c2ccc3ncnc(Nc4ccc(OCc5cccc(F)c5)c(Cl)c4)c3c2)o1 [Lapatinib] (partner 2 µM) ... 0.775

Pending molecule:
Qu. # relative viability lookup, item O=c1cc(N2CCOCC2)oc2c(-c3cccc4c3sc3ccccc34)cccc12 + Nc1ncn([C@H]2C[C@H](O)[C@@H](CO)O2)c(=O)n1 [Decitabine] (partner 2 µM)
Ans. 0.256

###

List of relative viability values.
Tested on: NCI-H1650
Assay: relative viability (nuclei count vs DMSO), 5 days (fraction); higher = more cells survive
Conditions: first compound 0.1 µM

The following molecules have reported results that may help.
CCN(CC)CCCCNc1ncc2cc(-c3cc(OC)cc(OC)c3)c(NC(=O)NC(C)(C)C)nc2n1 + COc1cc2c(Oc3ccc(NC(=O)C4(C(=O)Nc5ccc(F)cc5)CC4)cc3F)ccnc2cc1OCCCN1CCOCC1 [Foretinib] (partner 0.25 µM) ... 1.1
CCN(CC)CCCCNc1ncc2cc(-c3cc(OC)cc(OC)c3)c(NC(=O)NC(C)(C)C)nc2n1 + CCNC(=O)c1noc(-c2cc(C(C)C)c(O)cc2O)c1-c1ccc(CN2CCOCC2)cc1 [Luminespib] (partner 0.01 µM) ... 0.204

Pending molecule:
Qu. # relative viability lookup, item CCN(CC)CCCCNc1ncc2cc(-c3cc(OC)cc(OC)c3)c(NC(=O)NC(C)(C)C)nc2n1 + CS(=O)(=O)N1CCN(Cc2cc3nc(-c4cccc5[nH]ncc45)nc(N4CCOCC4)c3s2)CC1 [Pictilisib] (partner 1 µM)
Ans. 0.423

###

System: HCC-78
Experiment: relative viability (nuclei count vs DMSO), 5 days (fraction); higher = more cells survive
Conditions: first compound 0.1 µM
PARAMETER_MEASURED: relative viability
Would you mind answering with just the numeric figure?

The following compounds have reported results that may help.
CCN(CC)CCCCNc1ncc2cc(-c3cc(OC)cc(OC)c3)c(NC(=O)NC(C)(C)C)nc2n1 + O=C(CCCCCCC(=O)Nc1ccccc1)NO [Vorinostat] (partner 1 µM) ... 0.478
O=c1cc(N2CCOCC2)oc2c(-c3cccc4c3sc3ccccc34)cccc12 + Cc1nc(Nc2ncc(C(=O)Nc3c(C)cccc3Cl)s2)cc(N2CCN(CCO)CC2)n1 [Dasatinib] (partner 0.075 µM) ... 0.275
O=c1cc(N2CCOCC2)oc2c(-c3cccc4c3sc3ccccc34)cccc12 + O=C(c1cc(Cc2n[nH]c(=O)c3ccccc23)ccc1F)N1CCN(C(=O)C2CC2)CC1 [Olaparib] (partner 8 µM) ... 0.644
CCN(CC)CCCCNc1ncc2cc(-c3cc(OC)cc(OC)c3)c(NC(=O)NC(C)(C)C)nc2n1 + Cc1cc(Nc2cc(N3CCN(C)CC3)nc(Sc3ccc(NC(=O)C4CC4)cc3)n2)n[nH]1 [Tozasertib] (partner 0.1 µM) ... 0.507
CCN(CC)CCCCNc1ncc2cc(-c3cc(OC)cc(OC)c3)c(NC(=O)NC(C)(C)C)nc2n1 + CS(=O)(=O)N1CCN(Cc2cc3nc(-c4cccc5[nH]ncc45)nc(N4CCOCC4)c3s2)CC1 [Pictilisib] (partner 1 µM) ... 0.224

Pending compound:
Qu. # relative viability lookup, item O=c1cc(N2CCOCC2)oc2c(-c3cccc4c3sc3ccccc34)cccc12 + CC(=O)c1c(C)c2cnc(Nc3ccc(N4CCNCC4)cn3)nc2n(C2CCCC2)c1=O [Palbociclib] (partner 0.5 µM)
Ans. 0.437
